Hello, the source for this data is ChEMBL document CHEMBL1134563, in case you need it.

test system: HeLa; assay: Minimum inhibitory concentration required to elicit microscopically visible cell morphology in HeLa cell lines; format: functional; details: Homo sapiens
Measured MIC of individual entries
Give the value, in units of µM, as a plain number.

>>> measured_number("C=C=CSC[C@H]1OC(n2cnc3c(N)ncnc32)[C@H](O)[C@@H]1O (stereo not given in full)")
1240

# next compound below
The reported MIC of the compound C#CCSC[C@H]1OC(n2cnc3c(N)ncnc32)[C@H](O)[C@@H]1O (stereo not given in full) was 1240

---

tested on: HEL; assay: Effective concentration required to inhibit cytomegalo virus-induced cytopathicity by 50% in Davis-169 strain HEL cell lines; assay type: functional, cell-based; conditions: Homo sapiens
measured-attribute: EC50

>>> result("C=C=CSC[C@H]1OC(n2cnc3c(N)ncnc32)[C@H](O)[C@@H]1O (some centres undefined)")
"> 200 µM"
>>> result("Nc1nc2c(ncn2COC(CO)CO)c(=O)[nH]1")
"11.8 µM"
>>> result("CC#CSC[C@H]1OC(n2cnc3c(N)ncnc32)[C@H](O)[C@@H]1O (some centres undefined)")
"> 200 µM"

# next molecule below
The reported EC50 of the molecule C#CCSC[C@H]1OC(n2cnc3c(N)ncnc32)[C@H](O)[C@@H]1O (some centres undefined) was > 200 µM
